Field: HC50 at 1 h. Provide a value for each of the compounds that follow.
Assay: Induction of hemolysis in sheep erythrocytes after 60 mins by spectrophotometer analysis
Type: cell-based, Ovis aries, Erythrocyte
Settings: read-out: HD50
Express the result in µg/mL but write the number alone.

For NCCCC[C@H](N)C(=O)N[C@@H](Cc1ccc(O)cc1)C(=O)NCCCC[C@H](NC(=O)[C@H](Cc1ccc(O)cc1)NC(=O)[C@@H](N)CCCCN)C(=O)NCCCC[C@H](NC(=O)[C@H](CCCCNC(=O)[C@H](Cc1ccc(O)cc1)NC(=O)[C@@H](N)CCCCN)NC(=O)[C@H](Cc1ccc(O)cc1)NC(=O)[C@@H](N)CCCCN)C(=O)NCCC(N)=O , write its HC50 at 1 h. 3740

Please give the documented HC50 at 1 h of N=C(N)NCCC[C@H](N)C(=O)N[C@@H](Cc1ccc(O)cc1)C(=O)NCCCC[C@H](NC(=O)[C@H](Cc1ccc(O)cc1)NC(=O)[C@@H](N)CCCNC(=N)N)C(=O)NCCCC[C@H](NC(=O)[C@H](CCCCNC(=O)[C@H](Cc1ccc(O)cc1)NC(=O)[C@@H](N)CCCNC(=N)N)NC(=O)[C@H](Cc1ccc(O)cc1)NC(=O)[C@@H](N)CCCNC(=N)N)C(=O)NCCC(N)=O 2150

Read off the recorded HC50 at 1 h for NCCCC[C@H](N)C(=O)N[C@@H](Cc1c[nH]c2ccccc12)C(=O)NCCCC[C@H](NC(=O)[C@H](Cc1c[nH]c2ccccc12)NC(=O)[C@@H](N)CCCCN)C(=O)NCCCC[C@H](NC(=O)[C@H](CCCCNC(=O)[C@H](Cc1c[nH]c2ccccc12)NC(=O)[C@@H](N)CCCCN)NC(=O)[C@H](Cc1c[nH]c2ccccc12)NC(=O)[C@@H](N)CCCCN)C(=O)NCCC(N)=O 1460

The values you see were collected from ChEMBL document CHEMBL3217498.
